test: Hydrophobicity (log P); type: physicochemical
// values below are reported logP
measurement name: logP

• CC(C)c1cc(CCCC(=O)NCc2ccc(/N=N/c3ccc(C(=O)NCCN)cc3)cc2)cc(C(C)C)c1O [MPC088] = > 6
• CC(C)c1cccc(C(C)C)c1O [propofol, reference compound] = ~4

* * *

biological target: GABAc receptors (Homo sapiens); construct: expressed in transfected cells; host or cells: Xenopus oocytes; experiment: Two-electrode voltage clamp of GABAc-expressing Xenopus oocytes; assay type: cell-based; conditions: Hill fit of peak amplitudes normalized to saturating muscimol response
Sequence (P24046 22-479): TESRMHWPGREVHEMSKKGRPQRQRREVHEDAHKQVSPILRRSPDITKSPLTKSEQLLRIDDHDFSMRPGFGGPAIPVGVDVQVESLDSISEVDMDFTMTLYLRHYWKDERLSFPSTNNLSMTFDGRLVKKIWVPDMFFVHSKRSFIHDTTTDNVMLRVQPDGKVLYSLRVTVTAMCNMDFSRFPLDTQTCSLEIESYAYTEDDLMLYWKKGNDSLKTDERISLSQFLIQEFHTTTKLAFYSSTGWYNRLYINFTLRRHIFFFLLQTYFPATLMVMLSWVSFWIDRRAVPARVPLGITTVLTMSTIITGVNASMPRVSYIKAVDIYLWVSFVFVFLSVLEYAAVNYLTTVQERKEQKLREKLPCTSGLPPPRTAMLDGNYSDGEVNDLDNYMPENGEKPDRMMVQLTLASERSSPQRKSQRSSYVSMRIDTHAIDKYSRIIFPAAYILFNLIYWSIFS
pEC50: −log10 of the molar value.
measurement name: pEC50

* O=C(CCCC[C@@H]1SC[C@@H]2NC(=O)N[C@@H]21)NCCCCCC(=O)NCc1cc(O)no1 [muscimol-biotin] | 4.70
* NCc1cc(=O)[nH]o1 [muscimol, reference compound] | 5.70
